# experimental-target: GDP-bound KRAS wild-type protein (Homo sapiens, UniProt P01116)
# Sequence (P01116 whole entry): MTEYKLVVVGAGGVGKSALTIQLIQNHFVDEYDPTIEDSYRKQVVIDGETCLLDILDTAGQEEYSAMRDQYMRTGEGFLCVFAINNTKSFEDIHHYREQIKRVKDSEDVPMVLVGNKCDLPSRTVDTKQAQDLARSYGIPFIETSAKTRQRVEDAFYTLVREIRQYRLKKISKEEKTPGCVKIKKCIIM
# experiment: Binding to KRAS by surface plasmon resonance (SPR), Single Cycle Kinetics
# applied-conditions: SPR, Single Cycle Kinetics, GDP-bound KRAS wild-type protein; read-out: KRAS KD
measured-parameter: pKd
// pKd is dimensionless: -log10 of concentration (M)

Record excerpt, results attached:
CCO[C@@H]1C[C@H]2C(=O)NC3(CC(C)(C)C3)C(=O)N(C)[C@@H](C3CCCC3)C(=O)N(C)[C@H](C(=O)N(C)C)CC(=O)N(C)[C@H]3CCCCCCc4ccc(cc4)C[C@@H](C(=O)N(C)CC(=O)N[C@@H](CCc4ccc(C(F)(F)F)c(OC)c4)C(=O)N2C1)N1CC/C=C\C[C@@H](C1=O)N(C)C(=O)CN(C)C(=O)[C@H]([C@@H](C)CC)NC3=O :: 10.38
CC[C@H](C)[C@@H]1NC(=O)[C@H](CCOC)N(C)C(=O)C[C@@H](C(=O)N(C)CC)N(C)C(=O)[C@H](C2CCCC2)N(C)C(=O)C2(CC(C)(C)C2)NC(=O)[C@@H]2C[C@H](C)CN2C(=O)[C@H](CCc2cc(F)c(C(F)(F)F)c(F)c2)NC(=O)CN(C)C(=O)[C@H](Cc2ccc(C(F)(F)F)cc2)N2CC/C=C\C[C@@H](C2=O)N(C)C(=O)CN(C)C1=O :: 9.82

[ask] Give a short answer stating reported pKd for CCOC[C@H]1C(=O)N[C@@H]([C@@H](C)CC)C(=O)N(C)CC(=O)N(C)[C@H]2C/C=C\CCN(C2=O)[C@@H](CC2CCC(F)(F)CC2)C(=O)N(C)CC(=O)N[C@@H](CCc2ccc(C(F)(F)F)c(OC)c2)C(=O)N2C[C@@H](C)C[C@H]2C(=O)NC2(CC(C)(C)C2)C(=O)N(C)[C@@H](C(CC)CC)C(=O)N(C)[C@H](C(=O)N(C)C)CC(=O)N1C .
[reply] 8.89

* * *

human lung cancer strain NCI-H441: reported IC50 for various compounds.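 Further: cell proliferation inhibition after four days measured by CellTiter-Glo.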
Express it in nM; write the number only.

CCO[C@@H]1C[C@H]2C(=O)NC3(CC(C)(C)C3)C(=O)N(C)[C@@H](C3CCCC3)C(=O)N(C)[C@H](C(=O)N(C)CC)CC(=O)N(C)[C@@H](COC)C(=O)N[C@@H]([C@@H](C)CC)C(=O)N(C)CC(=O)N(C)[C@H]3C/C=C\CCN(C3=O)[C@@H](Cc3ccc(C)cc3)C(=O)N(C)CC(=O)N[C@@H](CCc3ccc(C(F)(F)F)c(Cl)c3)C(=O)N2C1 :: 8.9
CC[C@H](C)[C@@H]1NC(=O)[C@H](CC2CC2)N(C)C(=O)C[C@@H](C(=O)N2CCOCC2)N(C)C(=O)[C@H](C2CCCC2)N(C)C(=O)C2(CCC2)NC(=O)[C@@H]2CCCN2C(=O)[C@H](CCc2ccc(C(F)(F)F)c(Cl)c2)NC(=O)CN(C)C(=O)[C@H](Cc2ccc(C(F)(F)F)cc2)N2C[C@H](C)CC[C@@H](C2=O)N(C)C(=O)CN(C)C1=O :: 16.7
CCO[C@@H]1C[C@H]2C(=O)NC3(CCCC3)C(=O)N(C)[C@@H](C3CCCC3)C(=O)N(C)[C@H](C(=O)N3CCOCC3)CC(=O)N(C)[C@@H](CC)C(=O)N[C@@H]([C@@H](C)CC)C(=O)N(C)CC(=O)N(C)[C@H]3C[C@@H](C)[C@@H](C)CN(C3=O)[C@@H](Cc3ccc(C(F)(F)F)cc3)C(=O)N(C)CC(=O)N[C@@H](CCc3ccc(C(F)(F)F)c(Cl)c3)C(=O)N2C1 :: 3.2
CCO[C@@H]1C[C@H]2C(=O)NC3(CC(C)(C)C3)C(=O)N(C)[C@@H](C3CCCCC3)C(=O)N(C)[C@H](C(=O)N(C)C)CC(=O)N(C)[C@@H](COC)C(=O)N[C@@H]([C@@H](C)CC)C(=O)N(C)CC(=O)N(C)[C@H]3C/C=C\CCN(C3=O)[C@@H](Cc3ccc(C(F)(F)F)cc3)C(=O)N(C)CC(=O)N[C@@H](CCc3ccc(Cl)c(Cl)c3)C(=O)N2C1 :: 13.4
CCO[C@@H]1C[C@H]2C(=O)NC3(CCC3)C(=O)N(C)[C@@H](C(CC)CC)C(=O)N(C)[C@H](C(=O)N(C)C)CC(=O)N(C)[C@@H](CC(C)C)C(=O)N[C@@H]([C@@H](C)CC)C(=O)N(C)CC(=O)N(C)[C@H]3C/C=C\CCN(C3=O)[C@@H](Cc3ccc(C(F)(F)F)cc3)C(=O)N(C)CC(=O)N[C@@H](CCc3ccc4sccc4c3)C(=O)N2C1 :: 92.5

[ask] Determine reported IC50 for CCCOC[C@H]1C(=O)N[C@@H]([C@@H](C)CC)C(=O)N(C)CC(=O)N(C)[C@H]2C/C=C\CCN(C2=O)[C@@H](Cc2ccc(C)cc2)C(=O)N(C)CC(=O)N[C@@H](CCc2cc(F)c(C(F)(F)F)c(F)c2)C(=O)N2C[C@H](OCC)C[C@H]2C(=O)NC2(CC(C)(C)C2)C(=O)N(C)[C@@H](C2CCCC2)C(=O)N(C)[C@H](C(=O)N(C)C)CC(=O)N1C ; test system: human lung cancer strain NCI-H441.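 Further: cell proliferation inhibition after four days measured by CellTiter-Glo.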
[reply] 5.1
